Reference for the values: patent US7482308B2

test system: annual broad-leaved weeds; assay: Test for residual effectiveness against paddy field weeds (Test Example 2); format: in vivo; settings: 60 g ai/ha; period of maintaining herbicidal effect of higher than 80%
parameter_measured: period showing sufficient residual herbicidal effectiveness broad-leaved weeds (week)
One number for each entry, in week.

compound=COc1cc(OC)nc(Cc2cccc(Cl)c2NS(=O)(=O)C(F)F)n1 reported_result=4
compound="COCc1cccc(C(O)c2nc(OC)cc(OC)n2)c1NS(=O)(=O)C(F)F (stereo not shown) [Compound C-2, reference compound]" reported_result=2

Now, please, on to the next compound.
Write down the reported period showing sufficient residual herbicidal effectiveness broad-leaved weeds of COc1cc(OC)nc(C(O)c2cccc(F)c2NS(=O)(=O)C(F)F)n1 (stereo not shown) , test system: annual broad-leaved weeds.
3

---

Give herbicidal effect Cyperus serotinus for every item shown.
system: Cyperus serotinus Rottboel; assay: Test for herbicidal effect against paddy field weeds (Test Example 1); assay type: in vivo; details: 30 g ai/ha; application 13 days after inoculation; examined 3 weeks after treatment

compound="COc1cc(OC)nc(C(O)c2cccc(F)c2NS(=O)(=O)C(F)F)n1 (stereo not shown)" reported_result=100%
compound=COc1cc(OC)nc(C(=O)c2cccc(F)c2NS(=O)(=O)C(F)F)n1 reported_result=100%
compound="COc1cc(OC)nc(C(O)c2cccc(Cl)c2NS(=O)(=O)C(F)F)n1 (stereo not shown)" reported_result=100%

Reported herbicidal effect Cyperus serotinus for COc1cc(OC)nc(C(O)c2cccc(F)c2NS(=O)(=O)C(F)(F)F)n1 (stereo not shown) [Compound C-1, reference compound] : what is it?
60%

---

Give herbicidal effect Scirpus juncoides for every item shown.
tested on: Scirpus juncoides Roxburgh; assay: Test for herbicidal effect against paddy field weeds (Test Example 1); assay type: in vivo; settings: 30 g ai/ha; application 5 days after inoculation; examined 3 weeks after treatment
Give bare numbers, in %.

Take a look at these entries with their results.
compound="COc1cc(OC)nc(C(O)c2cccc(F)c2NS(=O)(=O)C(F)(F)F)n1 (stereo not shown) [Compound C-1, reference compound]" parameter_measured="herbicidal effect Scirpus juncoides" result_units=% reported_result=80
compound="COc1cc(OC)nc(C(O)c2cccc(Cl)c2NS(=O)(=O)C(F)F)n1 (stereo not shown) [Compound 3]" parameter_measured="herbicidal effect Scirpus juncoides" result_units=% reported_result=100

Hi, could you look up herbicidal effect Scirpus juncoides for each item in my list?
1. COc1cc(OC)nc(C(=O)c2cccc(F)c2NS(=O)(=O)C(F)F)n1 [Compound 17]
2. COc1cc(OC)nc(C(O)c2cccc(F)c2NS(=O)(=O)C(F)F)n1 (stereo not shown) [Compound 1]

100
100
